# System: M. tuberculosis H37Rv growth inhibition, 7H9 media
# test.description: M. tuberculosis growth inhibition, HTS (AID 449762);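 further: bacterial growth assessed after seven days of incubation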
# assay.context: measured here: IC90 growth inhibition
Inconclusive results are not listed.
readout.label: log10 IC90 (log10 of the value in µM)
In plain terms, each number is the log10 of measured IC90 in µM.

In the examples that follow, each entry is paired with its recorded log10 IC90.
INSERT INTO results (compound, test_system, value_observed) VALUES
  ('COc1cc(CNCCc2ccccc2)cc(Cl)c1OCc1ccccc1', 'M. tuberculosis H37Rv growth inhibition, 7H9 media', 1.40),
  ('COc1cccc(N2CCN(c3ncnc4c3[nH]c3ccccc34)CC2C)c1 (stereo unspecified)', 'M. tuberculosis H37Rv growth inhibition, 7H9 media', 1.55),
  ('Cc1ccc(C2=NNC3(CCOC(C)(C)C3)S2)cc1 (stereo unspecified)', 'M. tuberculosis H37Rv growth inhibition, 7H9 media', 1.17),
  ('COC(=O)CCCCC1SCC(NC(=O)c2ccccc2)C1=O (stereo unspecified)', 'M. tuberculosis H37Rv growth inhibition, 7H9 media', 1.19),
  ('COCCCn1c(SCc2cccc(OC)c2)nc2cc(OC)c(OC)cc2c1=N', 'M. tuberculosis H37Rv growth inhibition, 7H9 media', 1.69),
  ('CC1CCC(C(C)C)C(OC(=O)Cn2c(-c3ccc(F)cc3)[n+](C)c3ccccc32)C1 (stereo unspecified)', 'M. tuberculosis H37Rv growth inhibition, 7H9 media', 1.11),
  ('Nc1nc2ccccc2n1CCOc1ccccc1Cl', 'M. tuberculosis H37Rv growth inhibition, 7H9 media', 1.12);

# context switch: different compound, same log10 IC90
Exercise: Need log10 IC90 of CCC(C)Nc1ccc(NC(C)CC)cc1 (stereo unspecified) , thanks.
Solution: 0.23

###

# Tested on: M. tuberculosis H37Rv growth inhibition, 7H9 media
# test.description: M. tuberculosis growth inhibition, HTS (AID 449762);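 further: bacterial growth assessed after seven days of incubation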
# assay.context: measured here: IC90 growth inhibition
Inconclusive results are not listed.
Recorded IC90 for the following molecules
API: value field is a number in µM; no unit string.

Use the examples below as a reference point.
INSERT INTO measurements (molecule, test_system, value_observed) VALUES
  ('C#C[C@]1(O)CC[C@H]2[C@@H]3CCc4cc(OC5CCCC5)ccc4[C@H]3CC[C@@]21C', 'M. tuberculosis H37Rv growth inhibition, 7H9 media', 48),
  ('COC(=O)c1cc(=O)n(-c2ccc(F)cc2)c(=Nc2ccc(F)cc2)s1', 'M. tuberculosis H37Rv growth inhibition, 7H9 media', 1.86);

Exercise: Lab note: need IC90 for OC(CNCCc1ccc(C(F)(F)F)cc1)COC(c1ccccc1)c1ccccc1 (stereo not given) on M. tuberculosis H37Rv growth inhibition, 7H9 media, anyone have it?
Solution: 21.2

Exercise: Checklist item: IC90 tested on M. tuberculosis H37Rv growth inhibition, 7H9 media, entry Cc1ccnc(NC(=O)CCc2c[nH]c3ccccc23)c1 , value?
Solution: 54.4

Exercise: Missing value: IC90, M. tuberculosis H37Rv growth inhibition, 7H9 media, entry COc1ccc(NC(=O)NC(C)C2CC3CCC2C3)cc1 (stereo not given) . Fill in?
Solution: 27.1

Exercise: Return IC90 measured with M. tuberculosis H37Rv growth inhibition, 7H9 media given this molecule: O=C(CCC(=O)NC1CCCCCCC1)Nc1nnc(C(F)(F)F)s1
Solution: 13.9

Exercise: What is its IC90 for M. tuberculosis H37Rv growth inhibition, 7H9 media? Entry: O=C(Nc1ccccc1)C1=C[C@@H](C2CCCCC2)C[C@@H](OCc2ccc(CO)cc2)O1
Solution: 50.2
